- tested.target: ROMK (Kir1.1) channel (Homo sapiens (Human), UniProt P48048)
- Sequence (P48048 whole entry): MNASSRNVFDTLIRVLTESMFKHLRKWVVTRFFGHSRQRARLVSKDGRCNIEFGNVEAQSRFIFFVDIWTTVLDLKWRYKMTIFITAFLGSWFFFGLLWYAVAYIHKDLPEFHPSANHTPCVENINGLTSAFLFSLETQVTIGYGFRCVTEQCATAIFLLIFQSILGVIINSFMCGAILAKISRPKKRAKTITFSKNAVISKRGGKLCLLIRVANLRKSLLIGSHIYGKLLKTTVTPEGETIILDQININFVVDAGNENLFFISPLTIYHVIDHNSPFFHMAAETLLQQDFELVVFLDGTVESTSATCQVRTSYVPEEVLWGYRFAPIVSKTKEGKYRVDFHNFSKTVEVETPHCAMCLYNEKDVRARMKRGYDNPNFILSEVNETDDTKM
- method: Thallium Flux Assay
endpoint: pIC50
Friendly reminder that pIC50 comes from taking -log10 of the concentration in mol/L.

-- ask # input compound: CC1=C(N2CCC3(CCN(C[C@@H](O)c4ccc5c(c4)[C@@H](C)n4nnnc4-5)CC3)C2=O)COC1=O [Example 27D] ; wanted: its pIC50
-- reply 7.54

-- ask And what about the compound CC1=C(N2CCC3(CCN(C(CO)c4ccc5c(ccc6nnnn65)c4)CC3)C2=O)COC1=O (racemic) [Example 28] ?
-- reply 7.74

-- ask And what about the compound CC1=C(N2CCC3(CCN([C@H](CO)c4ccc5c(ccc6nnnn65)c4)CC3)C2=O)COC1=O [Example 28A] ?
-- reply 7.36

-- ask And what about the compound CC1=C(N2CCC3(CCN(C[C@H](O)c4ccc5c(c4)CCc4nnnn4-5)CC3)C2=O)COC1=O [Example 7A] ?
-- reply 7.47

-- ask And what about the compound C[C@H]1CC2(CCN(C[C@H](O)c3ccc4c(ccc5nnnn54)c3)CC2)C(=O)N1C1=CC(=O)OC1 [Example 17] ?
-- reply 7.70

-- ask And what about the compound CC1=C(N2CCC3(CCN(C[C@@H](O)c4ccc5c(c4)CCc4nnnn4-5)CC3)C2=O)COC1=O [Example 7B] ?
-- reply 7.42

-- ask And what about the compound CC1=C(N2CCC3(CCN(C[C@H](O)c4ccc5c(c4C)CCc4nnnn4-5)CC3)C2=O)COC1=O [Example 10] ?
-- reply 7.34

-- ask And what about the compound CC1=C(N2CCC3(CCN(CCc4ccc5c(c4)Cn4nnnc4-5)CC3)C2=O)COC1=O [Example 30] ?
-- reply 8.22

-- ask And what about the compound CC1=C(N2CCC3(CCN(C[C@@H](O)c4ccc5c(ccc6nnnn65)n4)CC3)C2=O)COC1=O [Example 22] ?
-- reply 6.73

-- ask And what about the compound CC1=C(N2CCC3(CCN(C[C@H](O)c4cc5c(cc4C4CC4)-c4nnnn4C5)CC3)C2=O)COC1=O [Example 25] ?
-- reply 6.89

-- ask And what about the compound CC1=C(N2CC[C@]3(CCN(C[C@@H](O)c4ccc5c(c4)Cn4nnnc4-5)C[C@H]3F)C2=O)COC1=O [Example 6] ?
-- reply 7.40

-- ask And what about the compound CC1=C(N2CCC3(CCN(C[C@H](O)c4ccc5c(c4Cl)Cn4nnnc4-5)CC3)C2=O)COC1=O [Example 1] ?
-- reply 7.51

-- ask And what about the compound CC1=C(N2CCC3(CCN(C[C@H](O)c4ccc5c(ccc6nnnn65)c4)CC3)C2=O)COC1=O [Example 20] ?
-- reply 7.96

-- ask And what about the compound CC1=C(N2CCC3(CCN(C[C@H](O)c4ccc5c(c4)[C@@H](C)n4nnnc4-5)CC3)C2=O)COC1=O [Example 27C] ?
-- reply 7.44

-- ask And what about the compound CC1=C(N2CCC3(CCN(C[C@@H](O)c4ccc5c(c4)Cn4nnnc4-5)CC3)C2=O)COC1=O [Example 9] ?
-- reply 7.72
